Source of measurements: ChEMBL document CHEMBL3994579

System: Streptococcus pyogenes
ASSAY_COMMENT: Antibacterial activity against erythromycin-susceptible Streptococcus pyogenes clinical isolate by broth microdilution method
Type: functional
OBSERVATION_TYPE: log10 of MIC (log10 of the value in µg/mL)
Note: values are log10 of MIC expressed in µg/mL.

Some molecules with recorded log10 of MIC:
- MOLECULE: "CC[C@H]1OC(=O)[C@H](C)[C@@H](OC(=O)Nc2cccc(OC)c2)[C@H](C)[C@@H](O[C@@H]2O[C@H](C)C[C@H](N(C)C)[C@H]2O)[C@](C)(O)C[C@@H](C)CN(C)[C@H](C)[C@H]2OC(=O)O[C@@]21C"
  OBSERVATION_TYPE: "log10 of MIC"
  READING: 0.30
- MOLECULE: "CC[C@H]1OC(=O)[C@H](C)[C@@H](OC(=O)Nc2ccccc2Cl)[C@H](C)[C@@H](O[C@@H]2O[C@H](C)C[C@H](N(C)C)[C@H]2O)[C@](C)(O)C[C@@H](C)CN(C)[C@H](C)[C@H]2OC(=O)O[C@@]21C"
  OBSERVATION_TYPE: "log10 of MIC"
  READING: -0.90

Let's switch to this molecule now.
log10 of MIC recorded for this molecule, CC[C@H]1OC(=O)[C@H](C)[C@@H](O[C@H]2C[C@@](C)(OC)[C@@H](O)[C@H](C)O2)[C@H](C)[C@@H](O[C@@H]2O[C@H](C)C[C@H](N(C)C)[C@H]2O)[C@](C)(O)C[C@@H](C)CN(C)[C@H](C)[C@@H](O)[C@]1(C)O [AZITHROMYCIN] , is -1.52
